From: patent US20260285850A1

test system: soybean (Glycine max); assay: Test A postemergence application, visual injury rating 0-100; assay type: in vivo; details: Postemergence, 31 g ai/ha, greenhouse 10 days; 0 no effect, 100 complete control
# maps each entry to its Soybean plant response rating (0 to 100 scale)
property-name: Soybean plant response rating (0 to 100 scale)

{"compound": "CCCS(=O)(=O)OC(=O)C1C=CC(NC(=O)C2(C)CN(c3cc(Cl)cc(Cl)c3)C(=O)O2)C1 (mixture of isomers)", "val": 40}
{"compound": "CC1(C(=O)NC2C=CC(C(=O)ON=Cc3ccccc3)C2)CN(c2cc(F)cc(F)c2)C(=O)O1 (stereo not shown)", "val": 90}
{"compound": "CC1(C(=O)NC2C=CC(C(=O)NS(=O)(=O)c3ccccc3)C2)CN(c2cc(Cl)cc(Cl)c2)C(=O)O1 (stereo not shown)", "val": 20}
{"compound": "CC1(C(=O)NC2C=CC(C(=O)NS(=O)(=O)C3CC3)C2)CN(c2cc(F)cc(F)c2)C(=O)O1 (stereo not shown)", "val": 50}

====

# maps each entry to its Soybean plant response rating (0-100)
test system: soybean (Glycine max); assay: Test A postemergence application, visual injury rating 0-100; type: in vivo; conditions: 62 g ai/ha, postemergence, 10 days, 0 = no effect, 100 = complete control
property-name: Soybean plant response rating (0-100)

{"compound": "CC1(C(=O)NC2CC=C(C(=O)O)C2)CN(c2cc(F)cc(F)c2)C(=O)O1 (stereo not shown)", "val": 70}
{"compound": "CC1(C(=O)NC2CC=C(C(=O)OCC(F)(F)F)C2)CN(c2cc(F)cc(Cl)c2)C(=O)O1 (stereo not shown)", "val": 0}
{"compound": "CC1(C(=O)NC2CC=C(C(=O)O)C2)CN(c2cc(Cl)cc(Cl)c2)C(=O)O1 (stereo not shown) [Compound 157]", "val": 60}
{"compound": "CSCCOC(=O)C1=CCC(NC(=O)C2(C)CN(c3cc(F)cc(Cl)c3)C(=O)O2)C1 (stereo not shown)", "val": 80}
{"compound": "C=CC1(C(=O)NC2CC(C(=O)OC)C2)CN(c2cc(F)cc(F)c2)C(=O)O1 (stereo not shown) [Compound 175]", "val": 60}
{"compound": "C=CC1(C(=O)NC2COC(C(=O)OC)C2)CN(c2cc(F)cc(F)c2)C(=O)O1 (stereo not shown)", "val": 80}
{"compound": "CC1(C(=O)NC2CC=C(C(=O)OCC(F)(F)F)C2)CN(c2cc(Cl)cc(Cl)c2)C(=O)O1 (stereo not shown)", "val": 80}
{"compound": "CCOC(=O)C1CC(NC(=O)C2(C)CN(c3cc(F)cc(F)c3)C(=O)O2)C1 (stereo not shown)", "val": 70}
{"compound": "CCOC(=O)C1=CCC(NC(=O)C2(C)CN(c3cc(Cl)cc(Cl)c3)C(=O)O2)C1 (stereo not shown)", "val": 70}
{"compound": "CC(C)COC(=O)C1=CCC(NC(=O)C2(C)CN(c3cc(F)cc(F)c3)C(=O)O2)C1 (stereo not shown)", "val": 60}
{"compound": "C=CC1(C(=O)NC2CC=C(C(=O)OC)C2)CN(c2cc(F)cc(F)c2)C(=O)O1 (racemic)", "val": 70}
{"compound": "CCOC(=O)C1C=CC(NC(=O)C2(C)CN(c3cc(C)cc(C)c3)C(=O)O2)C1 (stereo not shown)", "val": 60}
{"compound": "CC(C)OC(=O)C1=CCC(NC(=O)C2(C)CN(c3cc(F)cc(F)c3)C(=O)O2)C1 (stereo not shown) [Compound 99]", "val": 20}
{"compound": "CC1(C(=O)NC2CC=C(C(=O)OCC(F)F)C2)CN(c2cc(F)cc(F)c2)C(=O)O1 (stereo not shown) [Compound 151]", "val": 0}
{"compound": "COC(=O)C1=CCC(NC(=O)C2(C)CN(c3cc(Cl)cc(Cl)c3)C(=O)O2)C1 (stereo not shown)", "val": 50}
{"compound": "COC(=O)C1C=CC(NC(=O)C2(C)CN(c3cccc(OC(F)(F)F)c3)C(=O)O2)C1 (mixture of isomers)", "val": 60}

====

test system: corn (Zea mays); test: Test A postemergence application, visual injury rating 0-100; format: in vivo; conditions: 62 g ai/ha, postemergence, 10 days, 0 = no effect, 100 = complete control

{"molecule": "CC(C)COC(=O)C1=CCC(NC(=O)C2(C)CN(c3cc(Cl)cc(Cl)c3)C(=O)O2)C1 (stereo not shown)", "Corn plant response rating (0-100)": 100}
{"molecule": "CC1(C(=O)NC2CC=C(C(=O)O)C2)CN(c2cc(Cl)cc(Cl)c2)C(=O)O1 (stereo not shown)", "Corn plant response rating (0-100)": 100}
{"molecule": "CC(C)COC(=O)C1=CCC(NC(=O)C2(C)CN(c3cc(F)cc(F)c3)C(=O)O2)C1 (stereo not shown) [Compound 97]", "Corn plant response rating (0-100)": 0}
{"molecule": "CC1(C(=O)NC2CC=C(C(=O)OCC(F)F)C2)CN(c2cc(F)cc(F)c2)C(=O)O1 (stereo not shown) [Compound 152]", "Corn plant response rating (0-100)": 100}
{"molecule": "CCOC(=O)C1=CCC(NC(=O)C2(C)CN(c3cc(Cl)cc(Cl)c3)C(=O)O2)C1 (stereo not shown)", "Corn plant response rating (0-100)": 20}
{"molecule": "C=CC1(C(=O)NC2CC=C(C(=O)OC)C2)CN(c2cc(F)cc(F)c2)C(=O)O1 (racemic)", "Corn plant response rating (0-100)": 100}
{"molecule": "CC(C)COC(=O)C1=CCC(NC(=O)C2(C)CN(c3cc(F)cc(F)c3)C(=O)O2)C1 (stereo not shown) [Compound 98]", "Corn plant response rating (0-100)": 100}
{"molecule": "COC(=O)C1C=CC(NC(=O)C2(C)CN(c3cc(C)cc(C)c3)C(=O)O2)C1 (stereo not shown)", "Corn plant response rating (0-100)": 100}
{"molecule": "Cc1cc(C)cc(N2CC(C)(C(=O)NC3C=CC(C(=O)O)C3)OC2=O)c1 (stereo not shown)", "Corn plant response rating (0-100)": 100}
{"molecule": "CC1(C(=O)NC2CC=C(C(=O)OCC(F)(F)F)C2)CN(c2cc(Cl)cc(Cl)c2)C(=O)O1 (stereo not shown)", "Corn plant response rating (0-100)": 100}
{"molecule": "CC1(C(=O)NC2CC=C(C(=O)OCC(F)F)C2)CN(c2cc(F)cc(F)c2)C(=O)O1 (stereo not shown) [Compound 151]", "Corn plant response rating (0-100)": 0}
{"molecule": "CSCCOC(=O)C1CC(NC(=O)C2(C)CN(c3cc(F)cc(F)c3)C(=O)O2)C1 (racemic)", "Corn plant response rating (0-100)": 100}
{"molecule": "COC(=O)C1C=CC(NC(=O)C2(C)CN(c3cccc(OC(F)(F)F)c3)C(=O)O2)C1 (mixture of isomers)", "Corn plant response rating (0-100)": 90}
{"molecule": "CSCCOC(=O)C1=CCC(NC(=O)C2(C)CN(c3cc(Cl)cc(Cl)c3)C(=O)O2)C1 (stereo not shown)", "Corn plant response rating (0-100)": 0}
{"molecule": "C=CC1(C(=O)NC2CC(C(=O)OC)C2)CN(c2cc(F)cc(F)c2)C(=O)O1 (stereo not shown)", "Corn plant response rating (0-100)": 0}
{"molecule": "CC(C)OC(=O)C1=CCC(NC(=O)C2(C)CN(c3cc(F)cc(F)c3)C(=O)O2)C1 (stereo not shown)", "Corn plant response rating (0-100)": 100}

====

tested on: palmer (palmer amaranth, palmer pigweed, Amaranthus palmeri); experiment: Test A preemergence soil spray, visual injury rating 0-100; type: in vivo; details: 62 g ai/ha, 10 days, 0 = no effect, 100 = complete control
property-name: Pigweed, Palmer plant response rating (0-100)

{"compound": "CC1(C(=O)NC2CC=C(C(=O)O)C2)CN(c2cc(F)cc(F)c2)C(=O)O1 (stereo not drawn)", "target-desc": "palmer (palmer amaranth, palmer pigweed, Amaranthus palmeri)", "val": 60}
{"compound": "COC(=O)C1CC(NC(=O)C2(C)CN(c3cc(F)cc(F)c3)C(=O)O2)C1 (stereo not drawn) [Compound 117]", "target-desc": "palmer (palmer amaranth, palmer pigweed, Amaranthus palmeri)", "val": 10}
{"compound": "CCOC(=O)C1=CCC(NC(=O)C2(C)CN(c3cc(F)cc(Cl)c3)C(=O)O2)C1 (stereo not drawn)", "target-desc": "palmer (palmer amaranth, palmer pigweed, Amaranthus palmeri)", "val": 90}
{"compound": "CC1(C(=O)NC2CC=C(C(=O)O)C2)CN(c2cc(F)cc(Cl)c2)C(=O)O1 (stereo not drawn) [Compound 160]", "target-desc": "palmer (palmer amaranth, palmer pigweed, Amaranthus palmeri)", "val": 0}
{"compound": "CC(C)OC(=O)C1=CCC(NC(=O)C2(C)CN(c3cc(Cl)cc(Cl)c3)C(=O)O2)C1 (stereo not drawn)", "target-desc": "palmer (palmer amaranth, palmer pigweed, Amaranthus palmeri)", "val": 10}
{"compound": "CC1(C(=O)NC2CC=C(C(=O)OCC(F)F)C2)CN(c2cc(F)cc(F)c2)C(=O)O1 (stereo not drawn)", "target-desc": "palmer (palmer amaranth, palmer pigweed, Amaranthus palmeri)", "val": 90}
{"compound": "COC(=O)C1C=CC(NC(=O)C2(C)CN(c3cc(F)cc(F)c3)C(=O)O2)C1 (mixture of isomers) [Compound 161]", "target-desc": "palmer (palmer amaranth, palmer pigweed, Amaranthus palmeri)", "val": 100}
{"compound": "COC(=O)COC(=O)C1=CCC(NC(=O)C2(C)CN(c3cc(F)cc(F)c3)C(=O)O2)C1 (stereo not drawn)", "target-desc": "palmer (palmer amaranth, palmer pigweed, Amaranthus palmeri)", "val": 90}
{"compound": "CC1(C(=O)NC2CC=C(C(=O)O)C2)CN(c2cc(F)cc(Cl)c2)C(=O)O1 (stereo not drawn) [Compound 159]", "target-desc": "palmer (palmer amaranth, palmer pigweed, Amaranthus palmeri)", "val": 100}
{"compound": "C=CC1(C(=O)NC2COC(C(=O)OC)C2)CN(c2cc(F)cc(F)c2)C(=O)O1 (stereo not drawn)", "target-desc": "palmer (palmer amaranth, palmer pigweed, Amaranthus palmeri)", "val": 70}
{"compound": "COC(=O)C1CC(NC(=O)C2(C)CN(c3cc(F)cc(F)c3)C(=O)O2)C1 (stereo not drawn) [Compound 118]", "target-desc": "palmer (palmer amaranth, palmer pigweed, Amaranthus palmeri)", "val": 50}
{"compound": "C=CC1(C(=O)NC2CC(C(=O)OC)C2)CN(c2cc(F)cc(F)c2)C(=O)O1 (stereo not drawn)", "target-desc": "palmer (palmer amaranth, palmer pigweed, Amaranthus palmeri)", "val": 90}
{"compound": "CC1(C(=O)NC2CC=C(C(=O)NS(=O)(=O)C3CC3)C2)CN(c2cc(F)cc(F)c2)C(=O)O1 (racemic)", "target-desc": "palmer (palmer amaranth, palmer pigweed, Amaranthus palmeri)", "val": 20}
{"compound": "COC(=O)C1C=CC(NC(=O)C2(C)CN(c3cc(F)cc(F)c3)C(=O)O2)C1 (stereo not drawn) [Compound 92]", "target-desc": "palmer (palmer amaranth, palmer pigweed, Amaranthus palmeri)", "val": 70}
{"compound": "COC(=O)C1C=CC(NC(=O)C2(C(F)(F)F)CN(c3cc(F)c(F)c(F)c3)C(=O)O2)C1 (mixture of isomers)", "target-desc": "palmer (palmer amaranth, palmer pigweed, Amaranthus palmeri)", "val": 30}
{"compound": "CC1(C(=O)NC2C=CC(C(=O)NO)C2)CN(c2cc(F)cc(F)c2)C(=O)O1 (stereo not drawn)", "target-desc": "palmer (palmer amaranth, palmer pigweed, Amaranthus palmeri)", "val": 70}
{"compound": "CSCCOC(=O)C1=CCC(NC(=O)C2(C)CN(c3cc(Cl)cc(Cl)c3)C(=O)O2)C1 (stereo not drawn)", "target-desc": "palmer (palmer amaranth, palmer pigweed, Amaranthus palmeri)", "val": 0}
{"compound": "COC(=O)C1=CCC(NC(=O)C2(C)CN(c3cc(F)c(F)c(F)c3)C(=O)O2)C1 (mixture of isomers)", "target-desc": "palmer (palmer amaranth, palmer pigweed, Amaranthus palmeri)", "val": 0}
